# System: luciferase gene expression in HEK 293 cells in response to Comp. 004
# protocol-details: Screen of riboswitch constructs with 12C6-1 variant aptamers (libraries N1-N5) against Comp. 004, luciferase in HEK 293 cells
# Type: cell-based, human
# assay-conditions: library N5 variant aptamers (L5, X16-X21 randomized) of 12C6-1 in riboswitch constructs; in response to Comp. 004 treatment; HEK 293 cells
readout-type: Fold (induction of luciferase gene expression)

INSERT INTO measurements (substance, assay_target, result) VALUES
  ('N5_7E12 (DNA CTGGGGAGTCCT; chemistry not given here)', 'luciferase gene expression in HEK 293 cells in response to Comp. 004', '933.3 fold'),
  ('N5_7B7 (CTGGGGAGTCCT; chemistry not given here)', 'luciferase gene expression in HEK 293 cells in response to Comp. 004', '1046.3 fold'),
  ('N5_7H9 (DNA CTGGGGAGTCCT; chemistry not given here)', 'luciferase gene expression in HEK 293 cells in response to Comp. 004', '860.0 fold'),
  ('N5_1H1 (CTGGGGAGTCCT; chemistry not given here)', 'luciferase gene expression in HEK 293 cells in response to Comp. 004', '84.1 fold'),
  ('N5_9G5 (DNA CTGGGGAGTCCT; chemistry not given here)', 'luciferase gene expression in HEK 293 cells in response to Comp. 004', '725.3 fold');

---

# Test system: luciferase gene expression in HEK 293 cells in response to Comp. 004
# protocol-details: Screen of riboswitch constructs with 12C6-1 variant aptamers (libraries N1-N5) against Comp. 004, luciferase in HEK 293 cells
# Assay type: cell-based, human
# assay-conditions: library N5 variant aptamers (L5, X16-X21 randomized) of 12C6-1 in riboswitch constructs; in response to Comp. 004 treatment; HEK 293 cells
Each record's class is read off its Fold (induction of luciferase gene expression) using these ranges: lowest (below 800 fold), middle (800 fold to below 1000 fold), highest (1000 fold or more)

INSERT INTO results (substance, group_label) VALUES
  ('N5_4H7 (CTGGGGAGTCCT; chemistry not given here)', 'lowest'),
  ('N5_7E5 (DNA CTGGGGAGTCCT; chemistry not given here)', 'middle'),
  ('N5_8D1 (DNA CTGGGGAGTCCT; chemistry not given here)', 'highest'),
  ('N5_1F1 (CTGGGGAGTCCT; chemistry not given here)', 'lowest'),
  ('N5_3F11 (CTGGGGAGTCCT; chemistry not given here)', 'highest'),
  ('N5_1F10 (CTGGGGAGTCCT; chemistry not given here)', 'highest'),
  ('N5_7F2 (DNA CTGGGGAGTCCT; chemistry not given here)', 'middle'),
  ('N5_7G7 (DNA CTGGGGAGTCCT; chemistry not given here)', 'middle'),
  ('N5_7B6 (CTGGGGAGTCCT; chemistry not given here)', 'middle'),
  ('N5_7D6 (DNA CTGGGGAGTCCT; chemistry not given here)', 'highest'),
  ('N5_1C4 (CTGGGGAGTCCT; chemistry not given here)', 'lowest'),
  ('N5_7A1 (CTGGGGAGTCCT; chemistry not given here)', 'middle'),
  ('N5_7E2 (DNA CTGGGGAGTCCT; chemistry not given here)', 'highest'),
  ('N5_13G10 (CTGGGGAGTCCT; chemistry not given here)', 'highest'),
  ('N5_7C4 (DNA CTGGGGAGTCCT; chemistry not given here)', 'highest'),
  ('N5_7F1 (DNA CTGGGGAGTCCT; chemistry not given here)', 'highest'),
  ('N5_12G2 (CTGGGGAGTCCT; chemistry not given here)', 'highest'),
  ('N5_7A7 (CTGGGGAGTCCT; chemistry not given here)', 'highest'),
  ('N5_11G4 (CTGGGGAGTCCT; chemistry not given here)', 'middle'),
  ('N5_5C4 (CTGGGGAGTCCT; chemistry not given here)', 'highest'),
  ('N5_6B4 (CTGGGGAGTCCT; chemistry not given here)', 'highest'),
  ('N5_7H5 (DNA CTGGGGAGTCCT; chemistry not given here)', 'middle'),
  ('N5_1E4 (CTGGGGAGTCCT; chemistry not given here)', 'middle'),
  ('N5_1E8 (CTGGGGAGTCCT; chemistry not given here)', 'lowest'),
  ('N5_1D10 (CTGGGGAGTCCT; chemistry not given here)', 'lowest'),
  ('N5_7H3 (DNA CTGGGGAGTCCT; chemistry not given here)', 'lowest'),
  ('N5_7F9 (DNA CTGGGGAGTCCT; chemistry not given here)', 'lowest'),
  ('N5_2D10 (CTGGGGAGTCCT; chemistry not given here)', 'middle'),
  ('N5_1G2 (CTGGGGAGTCCT; chemistry not given here)', 'lowest'),
  ('N5_6B6 (CTGGGGAGTCCT; chemistry not given here)', 'lowest'),
  ('N5_14B10 (CTGGGGAGTCCT; chemistry not given here)', 'highest'),
  ('N5_8A9 (DNA CTGGGGAGTCCT; chemistry not given here)', 'highest'),
  ('N5_13E8 (CTGGGGAGTCCT; chemistry not given here)', 'highest'),
  ('N5_13H3 (CTGGGGAGTCCT; chemistry not given here)', 'highest'),
  ('N5_3F10 (CTGGGGAGTCCT; chemistry not given here)', 'middle'),
  ('N5_12F12 (CTGGGGAGTCCT; chemistry not given here)', 'highest');

---

# System: luciferase gene expression in HEK 293 cells in response to Comp. 004
# protocol-details: Screen of riboswitch constructs with 12C6-1 variant aptamers (libraries N1-N5) against Comp. 004, luciferase in HEK 293 cells
# Assay type: cell-based, human
# assay-conditions: library N5 variant aptamers (L5, X16-X21 randomized) of 12C6-1 in riboswitch constructs; in response to Comp. 004 treatment; HEK 293 cells
Let's look at some substances and their measured Fold (induction of luciferase gene expression).
readout-type: Fold (induction of luciferase gene expression) (fold)

INSERT INTO results (substance, readout_number) VALUES
  ('N5_13D1 (CTGGGGAGTCCT; chemistry not given here)', 722.9),
  ('N5_3F9 (CTGGGGAGTCCT; chemistry not given here)', 909.7),
  ('N5_1C2 (CTGGGGAGTCCT; chemistry not given here)', 687.2),
  ('N5_1H4 (CTGGGGAGTCCT; chemistry not given here)', 482.5),
  ('N5_7G11 (DNA CTGGGGAGTCCT; chemistry not given here)', 1533.8),
  ('N5_1A7 (CTGGGGAGTCCT; chemistry not given here)', 659.9),
  ('N5_7A4 (CTGGGGAGTCCT; chemistry not given here)', 988.3),
  ('N5_2G10 (CTGGGGAGTCCT; chemistry not given here)', 1249.7),
  ('N5_12F4 (CTGGGGAGTCCT; chemistry not given here)', 2096.2);

---

# System: luciferase gene expression in HEK 293 cells in response to Comp. 004
# protocol-details: Screen of riboswitch constructs with 12C6-1 variant aptamers (libraries N1-N5) against Comp. 004, luciferase in HEK 293 cells
# Type: cell-based, human
# assay-conditions: library N2 variant aptamers (J2-3, P3-J3-3a, J3a-2 randomized) of 12C6-1 in riboswitch constructs; in response to Comp. 004; HEK 293 cells
Let's look at some substances and their measured Fold (induction of luciferase gene expression).
readout-type: Fold (induction of luciferase gene expression) (fold)

INSERT INTO assay_data (substance, readout_number) VALUES
  ('N2_2G8 (DNA CTGGGGAGTCCTTCATGC; chemistry not given here)', 1.1),
  ('N2_2D7 (DNA CTGGGGAGTCCTTCATGC; chemistry not given here)', 1.0),
  ('N2_2C8 (CTGGGGAGTCCTTCATGC; chemistry not given here)', 0.9);

---

# Tested on: luciferase gene expression in HEK 293 cells in response to Comp. 004
# protocol-details: Screen of riboswitch constructs with 12C6-1 variant aptamers (libraries N1-N5) against Comp. 004, luciferase in HEK 293 cells
# Type: cell-based, human
# assay-conditions: library N2 variant aptamers (J2-3, P3-J3-3a, J3a-2 randomized) of 12C6-1 in riboswitch constructs; in response to Comp. 004; HEK 293 cells
Let's look at some substances and their measured Fold (induction of luciferase gene expression).
readout-type: Fold (induction of luciferase gene expression) (fold)

INSERT INTO results (substance, result_unit, readout_number) VALUES
  ('N2_2D12 (DNA CTGGGGAGTCCTTCATGC; chemistry not given here)', 'fold', 1.1),
  ('N2_2A6 (CTGGGGAGTCCTTCATGC; chemistry not given here)', 'fold', 1.2),
  ('N2_2B1 (CTGGGGAGTCCTTCATGC; chemistry not given here)', 'fold', 1.0),
  ('N2_2G10 (DNA CTGGGGAGTCCTTCATGC; chemistry not given here)', 'fold', 1.0),
  ('N2_2A2 (CTGGGGAGTCCTTCATGC; chemistry not given here)', 'fold', 0.7);
